Below: compounds with pIC50 recorded for RORc (Homo sapiens) in separate published works.
Reminder that pIC50 is minus the log10 of a molar concentration.

Some solved cases for reference:
compound | test system | measure | reported result
COCC1CN(C(=O)[C@]23CC[C@H](c4cc(-c5c(F)cccc5F)nnc42)C3(C)C)C1 | RORc (Homo sapiens) | pIC50 | 7.72
CC(C)(O)c1coc(-c2ccnc([C@@]34CC[C@@H](c5cc(-c6c(F)cccc6F)nnc53)C4(C)C)n2)n1 | RORc (Homo sapiens) | pIC50 | 7.83
CS(=O)(=O)N1CCC(Oc2ccc(S(=O)(=O)N(c3cccc(F)c3)C3CCC3)cc2)CC1 | RORc (Homo sapiens) | pIC50 | 7.54

Incoming: Could you tell me which pIC50 is on file for CC1(C)[C@H]2CC[C@]1([C@H]1CCCN(C(=O)NC3CC(O)C3)C1)c1nnc(-c3c(F)cccc3F)cc12 (stereo in doubt) ?
Outgoing: 6.43

Incoming: Could you do the same for CC1(C)[C@@H]2CC[C@@]1(N1CCOC1=O)c1nnc(-c3c(F)cccc3F)cc12 , please?
Outgoing: 6.06

Incoming: Follow-up item: CC1(C)[C@@H]2CC[C@@]1(C(=O)NCC(F)F)c1nnc(-c3ccccc3F)cc12
Outgoing: 5.95

Incoming: One more compound: CC1(C)[C@@H]2CC[C@@]1(CO)c1nnc(-c3c(F)cccc3Cl)cc12
Outgoing: 6.42

Incoming: Repeat with CC(C)(O)c1cn(-c2nccc([C@@]34CC[C@@H](c5cc(-c6c(F)cccc6F)nnc53)C4(C)C)n2)cn1
Outgoing: 7.86

Incoming: Again, but for CC1(C)[C@H]2CC[C@]1([C@H]1CCCN(c3ccc(Cl)nn3)C1)c1nnc(-c3c(F)cccc3F)cc12
Outgoing: 7.74

Incoming: One more compound: CC1(C)[C@H]2CC[C@]1(c1ccnc(N3CCO[C@H](CO)C3)n1)c1nnc(-c3c(F)cccc3F)cc12
Outgoing: 8.21

Incoming: And CC1(C)[C@H]2CC[C@]1(c1ccnc(N3CC4(CCO4)C3)n1)c1nnc(-c3c(F)cccc3F)cc12 ?
Outgoing: 7.89
